Data origin, for the record: PubChem BioAssay (NCI)

Reported growth inhibition values for a set of compounds
Experiment: NCI Yeast Anticancer Drug Screen. Data for the mlh1 rad18 strain (AID 175)
Settings: S. cerevisiae mlh1 rad18 strain growth inhibition; at 50.0 µM; active compounds read high
This is part of a sample that, as a whole, favours compounds with a hit. Of some 79,000 tested, about 15% had one in any assay.
Numbers only here, please. The scale is %.

Here's what some known entries look like.
[
  {
    "compound": "CCOc1cc2c(cnc3c4cc(OC)c(OC)cc4ccc23)cc1OC",
    "growth inhibition, %": -16.6
  },
  {
    "compound": "CN(C(=N)N)c1ccc(C(=O)Oc2ccc([N+](=O)[O-])cc2)cc1",
    "growth inhibition, %": 17.1
  },
  {
    "compound": "O=[N+]([O-])c1ccc2oc(=Nc3ccccc3)c(Nc3ccccc3)nc2c1",
    "growth inhibition, %": 6.25
  },
  {
    "compound": "NC(N)=NC(Cc1ccccc1)C(=O)O (centres undefined)",
    "growth inhibition, %": 0
  },
  {
    "compound": "NC(=O)C1(C(N)=O)CC1",
    "growth inhibition, %": 5.1
  }
]

stdin: Input Cc1c2cccc(Br)c2c[n+]2ccccc12 , output reported growth inhibition.
stdout: 31.1

stdin: Please give the documented growth inhibition of CCCC(=O)Nc1cn(COC)c(C(=O)N2C[C@@H]3C[C@]34C2=CC(=O)c2[nH]cc(C)c24)n1
stdout: 50.8

stdin: Consider the compound O=C(/C=C/c1ccccc1)SCc1ccccc1 . State its measured growth inhibition.
stdout: 2.35

stdin: Quickly give me recorded growth inhibition for Cc1ccc(-n2nc(C)cc2C)nn1
stdout: -13.8

stdin: Could you please provide reported growth inhibition for Cc1cc(C)c(SSc2c(C)cc(C)cc2C)c(C)c1 ? Thanks!
stdout: -1.6

----------
Experiment: NCI Yeast Anticancer Drug Screen. Data for the mec2-1 strain (AID 157)
Conditions: S. cerevisiae mec2-1 strain, at 50.0 µM, active compounds read high
This is part of a sample that, as a whole, favours compounds with a hit. Of some 79,000 tested, about 15% had one in any assay.
measurement_kind: growth inhibition (%)
Write the value in % as a bare number.

[
  {
    "compound": "O=c1ccn(Cc2ccccc2)c(=O)[nH]1",
    "endpoint_unit": "%",
    "growth inhibition": -10.3
  },
  {
    "compound": "COc1ccc(C(O)Cc2cc(=O)cc(-c3ccccc3)[nH]2)cc1 (stereo not drawn)",
    "endpoint_unit": "%",
    "growth inhibition": -4.95
  },
  {
    "compound": "CC1=CC(=C2C=CC(=O)C=C2)C=C(C)N1C",
    "endpoint_unit": "%",
    "growth inhibition": -5.55
  },
  {
    "compound": "N#C/C(=C/c1cccc([N+](=O)[O-])c1)C(=O)O",
    "endpoint_unit": "%",
    "growth inhibition": 10.6
  },
  {
    "compound": "CC(C)SC(=O)C[Si](C)(C)C",
    "endpoint_unit": "%",
    "growth inhibition": 6.95
  },
  {
    "compound": "O=C(O)c1ccc(N2C(=O)c3ccccc3C2=O)cc1",
    "endpoint_unit": "%",
    "growth inhibition": 4.8
  },
  {
    "compound": "CC/C(=N/N(C)C)C(=O)OC(C)(C)C",
    "endpoint_unit": "%",
    "growth inhibition": -24.6
  },
  {
    "compound": "C[Si]1(C)CC[Si](C)(C)OS(=O)(=O)O1",
    "endpoint_unit": "%",
    "growth inhibition": -8.35
  },
  {
    "compound": "NC(CC(=O)O)c1ccc(Cl)cc1 (stereo not drawn)",
    "endpoint_unit": "%",
    "growth inhibition": -23.3
  },
  {
    "compound": "CN(Cc1ccccc1)C(=O)c1ccccc1C(=O)O",
    "endpoint_unit": "%",
    "growth inhibition": -2.85
  }
]

stdin: Quick one: give measured growth inhibition for COc1c(NC(=O)c2ccc([N+](=O)[O-])cc2)cccc1[N+](=O)[O-]
stdout: 14.3

stdin: For CCCCCCC(O)CCCCCCCCCCC(=O)OC (stereo not drawn) , write its growth inhibition.
stdout: 4.5

stdin: Determine its reported growth inhibition: CC12CCC(/C(=N/O)C1=O)C2(C)C (stereo not drawn)
stdout: -2.15

----------
Test: NCI Yeast Anticancer Drug Screen. Data for the mlh1 rad18 strain (AID 175)
Conditions: S. cerevisiae mlh1 rad18 strain growth inhibition; at 50.0 µM; active compounds read high
This is part of a sample that, as a whole, favours compounds with a hit. Of some 79,000 tested, about 15% had one in any assay.
measurement_kind: growth inhibition (%)
Give the value, in units of %, as a plain number.

Field: example entries. Status: answers known.
[
  {
    "compound": "O=[N+]([O-])c1ccccc1N=NNc1ccccc1[N+](=O)[O-]",
    "endpoint_unit": "%",
    "growth inhibition": 3
  },
  {
    "compound": "CC1=C(C)C(N(C)C)CS(=O)(=O)O1 (centres undefined)",
    "endpoint_unit": "%",
    "growth inhibition": -7.9
  },
  {
    "compound": "S=C1CSc2c(ccc3ccccc23)N1",
    "endpoint_unit": "%",
    "growth inhibition": -9.4
  },
  {
    "compound": "O=[N+]([O-])c1ccc(NN=C2CN3CCN(C2)c2ccccc23)c([N+](=O)[O-])c1",
    "endpoint_unit": "%",
    "growth inhibition": 35.1
  },
  {
    "compound": "Cc1onc(-c2ccccc2Cl)c1C(=O)NCC(=O)O",
    "endpoint_unit": "%",
    "growth inhibition": -0.15
  }
]

Then there is this compound:
stdin: // Input: Cc1cc(Cc2c(F)c(F)c(Cc3cc(C)no3)c(F)c2F)on1 . Output its growth inhibition only.
stdout: 18.1

----------
Assay: NCI Yeast Anticancer Drug Screen. Data for the sgs1 mgt1 strain (AID 161);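 also: 0% = growth of cultures given vehicle only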
Conditions: S. cerevisiae sgs1 mgt1 strain, at 50.0 µM, active compounds read high
The panel holds about 79,000 compounds, 15% with a hit somewhere; the sample as a whole holds those more often.
Below is a list of entries, each paired with its recorded growth inhibition value.
Hi! Could you send only the number? It should be in %, unit omitted.

Past entries and their recorded results:
[
  {
    "molecule": "CCCCCCCCCCCC(=O)Nc1ccc(C(C)C)cc1",
    "endpoint_unit": "%",
    "growth inhibition": -13.3
  },
  {
    "molecule": "Nc1ccccc1Nc1ccncc1",
    "endpoint_unit": "%",
    "growth inhibition": -1.7
  },
  {
    "molecule": "CC(=O)Oc1cc(C=O)ccc1O",
    "endpoint_unit": "%",
    "growth inhibition": -3.3
  },
  {
    "molecule": "Cc1cc2nc(/C(C#N)=C/c3cc(Cl)cc(Cl)c3O)[nH]c2cc1C",
    "endpoint_unit": "%",
    "growth inhibition": 33
  },
  {
    "molecule": "CCOC(=O)C(=CNc1ccc2c(c1)OCO2)C(=O)OCC",
    "endpoint_unit": "%",
    "growth inhibition": 28.2
  }
]

Could you now look at the following molecule, please?
stdin: Identify growth inhibition associated with the molecule NC(=O)CCP(=O)(CCC(N)=O)CCC(N)=O
stdout: 1.2

----------
Each entry below carries its recorded growth inhibition.
Test: NCI Yeast Anticancer Drug Screen. Data for the rad50 strain (AID 155);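 also: 0% = growth of vehicle-only cultures of the same strain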
Details: S. cerevisiae rad50 strain growth inhibition; at 50.0 µM; active compounds read high
Protocol: Growth inhibition of yeast strains with defined genetic alterations is measured as a screen for potential anti-cancer activity. Selected strains with alterations in DNA damage repair or cell cycle control were exposed to compounds and growth inhibition was measured relative to vehicle treated controls. The strain used in this assay is rad50
This is part of a sample that, as a whole, favours compounds with a hit. Of some 79,000 tested, about 15% had one in any assay.
Your answer should be a plain number; it is taken to be in %.

Here's what some known entries look like.
[
  {
    "molecule": "CCOC(=O)C(C)c1nc2cc(F)c(F)cc2[nH]c1=O (stereo unspecified)",
    "growth inhibition (%)": -5.45
  },
  {
    "molecule": "COc1ccc(N=Cc2c(O)ccc3ccccc23)cc1",
    "growth inhibition (%)": 12
  }
]

stdin: Read the entry NC(C(=O)O)c1ccc(F)cc1 (stereo unspecified) and write its reported growth inhibition.
stdout: -9.1

stdin: Give growth inhibition for O=C1NC2OC(CO)C(O)C(O1)C2O (stereo unspecified)
stdout: -9.7

stdin: Return reported growth inhibition. Input molecule: CC(=O)Nc1cc2c(cc1[N+](=O)[O-])-c1ccc([N+](=O)[O-])cc1C2=O
stdout: 3.9

stdin: Could you please provide reported growth inhibition for O=C(CCCN1CC=C(n2c(=O)[nH]c3ccccc32)CC1)c1cccs1 ? Thanks!
stdout: 50.6
